Source of measurements: ChEMBL document CHEMBL1201862

Assignment: determine reported GI50 for the given compounds.
# Test system: A498
# ASSAY_METHOD_TEXT: NCI tumour cell line growth inhibition, 48 h
The source made the active and inactive calls. No stated cut-off is given here; in the data, active = GI50 up to about 1.1 µM and inactive = higher.

Just so you know, measured GI50 for CC(=O)O[C@H]1CC[C@@]2(C)C(=C/C(=N\[N+](=O)[O-])[C@H]3C4CCC([C@H](C)CCCC(C)C)[C@@]4(C)CCC32)C1 (some centres not stated) came out at > 100 µM (inactive)

Just so you know, measured GI50 for CC1(C)Cc2c(c3ccccc3c3nc4c(nc23)c2c(c3ccccc34)OC(C)(C)C2)O1 came out at > 100 µM (inactive)

Just so you know, measured GI50 for COc1ccc(CC(=O)NCCc2ccc(OC)c(OC)c2OC)cc1 came out at > 100 µM (inactive)

Just so you know, measured GI50 for C=C1C(=O)C2=C[C@H]1C[C@H](O)C(=O)[C@]1(C)CCCC(C)(C)[C@H]1C[C@H]2O came out at 1.86 µM (inactive)

Just so you know, measured GI50 for c1ccc(N/N=C2\CC(c3ccccc3)Oc3ccccc32)cc1 (configuration not stated) came out at 42.2 µM (inactive)

Just so you know, measured GI50 for CC1S/C(=N\N=C2/C(=O)Nc3ccc(Br)cc32)N(C2CCCCC2)C1=O (configuration not stated) came out at 3.04 µM (inactive)

Just so you know, measured GI50 for CC(=O)OC1COC(Nc2nc(NCc3ccccc3)n(C)c(=O)c2N=O)C(OC(C)=O)C1OC(C)=O (configuration not stated) came out at > 10 µM (inactive)

Just so you know, measured GI50 for CC(=O)c1sc(=N)n(-c2c(C)cccc2C)c1C came out at > 100 µM (inactive)

Just so you know, measured GI50 for O=C(NCCC1([N+](=O)[O-])CCN(C(=O)c2ccccc2)CC1)c1ccccc1 came out at > 100 µM (inactive)

Just so you know, measured GI50 for COC(=O)C1=C(C)N(NC(=O)c2cccc(Cl)c2)C(C)(O)C12CCOC2=O (configuration not stated) came out at > 100 µM (inactive)

Just so you know, measured GI50 for CCOC(=O)C1C(=O)CC(C)(O)C(C(=O)OCC)C1c1ccc(OC)cc1 (configuration not stated) came out at > 100 µM (inactive)

Just so you know, measured GI50 for Cc1cc(N(CCC#N)CCC#N)ccc1/C=N/NC(=O)c1cc(Cl)ccc1O came out at > 100 µM (inactive)

Just so you know, measured GI50 for N/N=C(\Nc1ccccc1)SCc1ccccc1 came out at > 100 µM (inactive)

Just so you know, measured GI50 for CCO/C=C1\N=C(c2ccccc2Br)OC1=O came out at > 100 µM (inactive)

Just so you know, measured GI50 for O=[N+]([O-])c1ccc(SN=S=NSc2cccc(SN=S=NSc3ccc([N+](=O)[O-])cc3)c2)cc1 came out at 94.8 µM (inactive)

Just so you know, measured GI50 for Cc1cnc2nc(-c3sccc3C)cc(O)c2c1 came out at 23.4 µM (inactive)

Just so you know, measured GI50 for c1cc(CNCCN2CCNCC2)ccn1 came out at > 100 µM (inactive)

Just so you know, measured GI50 for COc1cc(C(=O)N(C)N(C)C)cc(OC)c1OC came out at > 10 µM (inactive)

Just so you know, measured GI50 for CC1C2CC(CC2(C)O)C1(C)C (configuration not stated) came out at > 100 µM (inactive)

Just so you know, measured GI50 for CC(C)=CC(=O)c1[nH]c2ccccc2c1CC(=O)NCCc1cncn1C came out at 30 µM (inactive)

Just so you know, measured GI50 for BrC1=C(Br)C2(SCCS2)[C@H]2C[C@@H]1c1ccccc12 came out at > 100 µM (inactive)

Just so you know, measured GI50 for CSc1ncc2c(n1)C(C#N)C1Sc3ccccc3N1C2=O (configuration not stated) came out at > 100 µM (inactive)
